molecular target: Peroxisome proliferator-activated receptor gamma (Homo sapiens) (UniProt P37231); experiment: qHTS assay to identify small molecule agonists of the peroxisome proliferator-activated receptor gamma (PPARg) signaling pathway (AID 743094); details: HEK293H PPARg-UAS-bla, beta-lactamase FRET ratio, 17 h; series mostly up to 57 µM
Sequence (P37231 whole entry, looked up): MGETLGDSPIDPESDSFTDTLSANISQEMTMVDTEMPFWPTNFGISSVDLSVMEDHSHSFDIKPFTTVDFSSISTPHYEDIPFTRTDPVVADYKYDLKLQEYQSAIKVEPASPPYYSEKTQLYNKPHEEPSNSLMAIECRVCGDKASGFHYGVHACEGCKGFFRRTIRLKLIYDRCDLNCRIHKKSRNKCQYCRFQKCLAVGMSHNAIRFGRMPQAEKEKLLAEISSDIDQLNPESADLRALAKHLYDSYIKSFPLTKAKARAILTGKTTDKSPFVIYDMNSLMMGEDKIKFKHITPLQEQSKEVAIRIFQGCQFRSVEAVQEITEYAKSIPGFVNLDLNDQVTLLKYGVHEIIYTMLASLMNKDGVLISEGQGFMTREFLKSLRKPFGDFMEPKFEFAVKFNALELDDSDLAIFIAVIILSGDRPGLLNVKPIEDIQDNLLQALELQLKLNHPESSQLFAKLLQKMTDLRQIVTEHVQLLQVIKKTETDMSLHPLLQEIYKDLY
Results filed as inconclusive are left out. Activity calls are given as the source filed them. Calls follow the shape of the dose curve; as a rule, active = well fitted activation curve with a large enough effect in the signal ratio in the repeat runs (not every such curve was filed as active); inconclusive = weak or mixed curves, or effect the other way; inactive = no such curve, though single readings can be large or run the other way; the % refers to the signal ratio.
measured_quantity: outcome

Example entries begin here.
INSERT INTO results (compound, endpoint_value) VALUES
  ('O=C(c1ccccc1)C1CCC1', 'inactive'),
  ('COC(=O)C1=C(C)NC(C)=C(C(=O)OC(C)(C)CN(C)CCC(c2ccccc2)c2ccccc2)C1c1cccc([N+](=O)[O-])c1 (stereo not given)', 'inactive'),
  ('COc1ccc(CCN(C)CCCN2CCc3cc(OC)c(OC)cc3CC2=O)cc1OC', 'inactive'),
  ('COc1ccc(N)c([N+](=O)[O-])c1', 'inactive'),
  ('Nc1ccc(N=Nc2ccc(N)cc2)cc1', 'inactive');

Exam item: Name the reported outcome value associated with the compound C1CCCCC1
Marked response: inactive

Exam item: Name the reported outcome value associated with the compound Nc1nc2ccc(OC(F)(F)F)cc2s1
Marked response: inactive

Exam item: Name the reported outcome value associated with the compound O=S(=O)(Cl)c1c(Cl)cccc1Cl
Marked response: inactive

###

experiment: A CellTox Green Cytotoxicity Assay to monitor cytotoxicity in HepG2 cells - 40 hour (AID 1224879); details: CellTox Green fluorescence; series mostly up to 76.8 µM; also: nearly all actives have a fitted effect of over 40% in size
Records with an inconclusive call do not appear. The source made the active and inactive calls. The call rests on the fitted dose curve; in most records, active means well fitted activation curve with a large enough effect in the repeat runs; inconclusive means weak or mixed curves; inactive means flat fitted curve, though single readings scatter.
Bench note: report the call from True (active), False (inactive)

Record excerpt, results attached:
INSERT INTO measurements (compound, class) VALUES
  ('COC(=O)CC(C(C)=O)C(=O)OC (stereo not drawn)', 'False'),
  ('CC[C@H]1OC(=O)[C@H](C)[C@@H](O[C@H]2C[C@@](C)(OC)[C@@H](O)[C@H](C)O2)[C@H](C)[C@@H](O[C@@H]2O[C@H](C)C[C@H](N(C)C)[C@H]2O)[C@](C)(O)C[C@@H](C)/C(=N\OCOCCOC)[C@H](C)[C@@H](O)[C@]1(C)O', 'False'),
  ('CN1CCCN(C(c2ccccc2)c2ccc(Cl)cc2)CC1 (stereo not drawn)', 'True'),
  ('CCCCCCCCCCCC(=O)OCC(O)CO (stereo not drawn)', 'False'),
  ('CC(C)(C)CCCCCCOC(=O)c1ccccc1C(=O)OCCCCCCC(C)(C)C', 'False');

Exam item: For CCCCCCCC(=O)OCCCCCC , which call appears in the assay record?
Marked response: False

Exam item: For O=S(=O)(O)CO , which call appears in the assay record?
Marked response: False

Exam item: For Cc1ccccc1S(N)(=O)=O , which call appears in the assay record?
Marked response: False

Exam item: For CC(O)Cn1cnc2c1c(=O)n(C)c(=O)n2C (stereo not drawn) , which call appears in the assay record?
Marked response: False

Exam item: For CNS(=O)(=O)c1cc(C(=O)N2CCC(CCN3C4CCC3CC(n3c(C)nc5ccccc53)C4)(c3cccc(F)c3)CC2)c(Cl)cc1F (stereo not drawn) , which call appears in the assay record?
Marked response: False

Exam item: For CC(C)c1ccc(C(=O)N=C(N)N)cc1S(C)(=O)=O , which call appears in the assay record?
Marked response: False
